Some compounds, each annotated with its measured half-life at 2 ug/ml.
- Experimental Protocol: Microsomal stability in mouse liver microsomes assessed as half life measured at 2 ug/ml upto 60 mins in presence of NADPH generating system and UGT incubation system by phase II metabolic stability kit method
- Assay type: ADME, Microsome
- Condition Parameters: dose 2 µg/ml
Just the number please, in min, no unit attached.

COc1cc([C@@H]2c3cc4c(cc3[C@@H](O[C@@H]3O[C@@H]5CO[C@@H](C)O[C@H]5[C@H](O)[C@H]3O)[C@H]3COC(=O)[C@H]23)OCO4)cc(OC)c1O [ETOPOSIDE]; 21

Read the next record carefully.
input: Let me know recorded half-life at 2 ug/ml for `O=C1c2c[n+]([O-])c3ccccc3c2C(=O)c2c1c1ccccc1n2Cc1cn([C@@H]2C[C@H](O)[C@@H](CO)O2)nn1` , thanks.
output: 40

* * *

- Tested on: A549
- Experimental Protocol: Cytotoxicity against human A549 cells expressing high level of topoisomerase I/II measured after 72 hrs by MTT assay
- Format: functional, cell-based
- Condition Parameters: A549, 72 h
Consider the following compounds and their measured IC50 readings.
Numeric only. Scale: nM

O=C1c2c[n+]([O-])c3ccccc3c2C(=O)c2c1c1ccccc1n2Cc1cn([C@H]2O[C@H](CO)[C@@H](O)[C@H]2O)nn1; 2680
O=C1c2c[n+]([O-])c3ccccc3c2C(=O)c2c1c1ccccc1n2CCN1CCOCC1; 560
O=C1c2c[n+]([O-])c3ccccc3c2C(=O)c2[nH]c3ccccc3c21; 320

input: GET IC50 | system: A549 | item: `O=C1c2c[n+]([O-])c3ccccc3c2C(=O)c2c1c1ccccc1n2CCCN1CCC(O)CC1`
output: 350

input: Recall the reported IC50 of `CC(=O)OC[C@H]1O[C@@H](n2cc(Cn3c4c(c5ccccc53)C(=O)c3c[n+]([O-])c5ccccc5c3C4=O)nn2)[C@H](OC(C)=O)[C@@H](OC(C)=O)[C@@H]1OC(C)=O` on A549 and write it down.
output: 290

input: For A549, give IC50 of the listed compound: `O=C1c2c[n+]([O-])c3ccccc3c2C(=O)c2c1c1ccccc1n2CCCN1CCOCC1`
output: 400

input: Name the recorded IC50 of CC1(C)OCC(Cn2cc(Cn3c4c(c5ccccc53)C(=O)c3c[n+]([O-])c5ccccc5c3C4=O)nn2)O1 (stereo unspecified) , assay system A549.
output: 80

input: Report IC50 on A549 for this entry: `CN1CCN(CCCn2c3c(c4ccccc42)C(=O)c2c[n+]([O-])c4ccccc4c2C3=O)CC1`
output: 140

input: Give A549 IC50 for the following compound: O=C1c2c[n+]([O-])c3ccccc3c2C(=O)c2c1c1ccccc1n2Cc1cn(CC(O)CO)nn1 (stereo unspecified)
output: 880

input: Param request: IC50 | system A549 | item `CN(C)CCCCn1c2c(c3ccccc31)C(=O)c1c[n+]([O-])c3ccccc3c1C2=O`
output: 310

* * *

The entries below are paired with their reported IC50 at 72 h.
- Experimental Protocol: Cytotoxicity against human HEK293T cells measured after 72 hrs by MTT assay
- Assay type: toxicity, cell-based, HEK-293T
All answers are understood in nM, so give the number only.

Solved cases below.
CN(C)CCCCn1c2c(c3ccccc31)C(=O)c1c[n+]([O-])c3ccccc3c1C2=O; 520
CC1(C)OC[C@@H](Cn2cc(Cn3c4c(c5ccccc53)C(=O)c3c[n+]([O-])c5ccccc5c3C4=O)nn2)O1; 6020

Now turn to the next molecule.
input: Fill in reported IC50 at 72 h for this entry: `O=C1c2c[n+]([O-])c3ccccc3c2C(=O)c2c1c1ccccc1n2CCCCn1ccnc1`
output: 280
